Source: PubChem BioAssay (NCATS)

Assay: S16 Schwann cell PMP22 intronic element firefly luciferase assay (AID 624032); further: nearly all actives have a fitted effect of over 30% in size
Settings: S16 rat Schwann cells, PMP22 element FLuc, 24 h; series mostly up to 25.7 µM
Records with an inconclusive call do not appear. The source made the active and inactive calls. The call rests on the fitted dose curve; in most records, active means well fitted inhibition curve with a large enough effect; inconclusive means small, poorly fitted or top-dose-only effect; inactive means no such curve, though single readings can be large or run the other way.
MEASURED ENDPOINT: outcome

CO[C@@H]1C[C@H](O[C@H]2[C@@H](C)[C@H](O[C@@H]3O[C@@H](C)C[C@@H](N(C)C)[C@@H]3OC(C)=O)[C@H](C)C[C@]3(CO3)C(=O)[C@H](C)[C@H](OC(C)=O)[C@H](C)[C@H](C)OC(=O)[C@@H]2C)O[C@H](C)[C@@H]1OC(C)=O :: inactive
C=CCN1C(=CCO)[C@H]2C[C@H]3[C@@H]1CC[C@@]31c3ccccc3N3C=C4[C@@H]5N(/C=C/2[C@H]31)c1ccccc1[C@]51CC[C@H]2[C@H]1C[C@@H]4/C(=C/CO)N2CC=C :: inactive
